The measurements presented in this section are drawn from ChEMBL document CHEMBL1201862.

system: OVCAR-4; test: NCI tumour cell line growth inhibition, 48 h
Activity calls are given as the source filed them. No stated cut-off is given here; in the data, active = GI50 up to about 1.1 µM and inactive = higher.
List of GI50 values.

The cases that follow already have their GI50 on record.
COMPOUND	TESTED_ON	GI50
COC(=O)CCC(C)C1CCC2C3C(C[C@H](OC(C)=O)[C@]12C)[C@@]1(C)CCC2(C[C@H]1C[C@H]3OC(C)=O)OOC1(CC[C@]3(C)C4C[C@H](OC(C)=O)[C@]5(C)C(C(C)CCC(=O)OC)CCC5C4[C@H](OC(C)=O)C[C@@H]3C1)OO2 (some centres undefined)	OVCAR-4	> 100 µM (inactive)
CNC(=S)NNc1ncnc2c1c(-c1ccc(Cl)cc1)cn2-c1ccc(C)cc1	OVCAR-4	15.6 µM (inactive)
NCS(=O)(=O)O	OVCAR-4	83.4 µM (inactive)
N#CC(=N)c1ncn(-c2ccccc2N)c1N	OVCAR-4	> 100 µM (inactive)
C[C@@H]1OC(=O)C[C@H]2CC(=O)N(CCc3cn(S(=O)(=O)C(F)(F)F)c4ccccc34)C[C@@H]21	OVCAR-4	> 100 µM (inactive)
CC(=O)OCC1OC(n2cc(I)c(=O)[nH]c2=O)C(OC(C)=O)C(OC(C)=O)C1OC(C)=O (centres undefined)	OVCAR-4	> 100 µM (inactive)

Entry under review: "Cc1cc(C)n(-c2nc3ccccc3c(=O)[nH]2)n1" . Reported GI50?
56.6 µM (inactive)

Entry under review: "CC(=O)c1sc(Nc2ccc(Cl)c(Cl)c2)nc1C" . Reported GI50?
> 100 µM (inactive)

Entry under review: Cc1nc2c(Br)cc(Br)cc2c(=O)n1-c1ccccc1NC1OC(CO)C(O)C(O)C1O (centres undefined) . Reported GI50?
> 100 µM (inactive)

* * *

List of GI50 values.
system: SK-OV-3; test: NCI tumour cell line growth inhibition, 48 h
Activity calls are given as the source filed them. No stated cut-off is given here; in the data, active = GI50 up to about 1.1 µM and inactive = higher. Residues, ends and D or L forms follow the SMILES beside them. *: point of attachment. Boc = CC(C)(C)OC(=O)*; OBn = c1ccc(CO*)cc1

The cases that follow already have their GI50 on record.
COMPOUND	ENDPOINT	DATA_VALUE
Nc1ccc(-c2ccc(Nc3cc(S(=O)(=O)O)c(N)c4c3C(=O)c3ccccc3C4=O)cc2)c(S(=O)(=O)O)c1	GI50	> 100 µM (inactive)
CCOc1ccc(/N=C/c2c3ccccc3nc3ccccc23)cc1	GI50	> 100 µM (inactive)
CC(C)(CN1CCCCC1)C(=O)/C=C/c1ccc(Br)cc1	GI50	3.04 µM (inactive)

Now examine the next entry.
Entry under review: CC(C)C(NC(=O)C(Cc1ccccc1)NC(=O)OC(C)(C)C)C(=O)NCC(=O)OCc1ccccc1 (stereo not drawn) (Boc-Phe-Val-Gly-OBn; configuration not given here) . Reported GI50?
13.4 µM (inactive)

* * *

test system: NCI-H522; assay: NCI tumour cell line growth inhibition, 48 h
The source made the active and inactive calls. Rule as the data show it: active = GI50 up to about 1.1 µM and inactive = higher.
ENDPOINT: GI50

COMPOUND	GI50
Cc1ccsc1C(=O)C(CC(=O)c1cccs1)c1ccsc1 (stereo not given)	> 100 µM (inactive)
CN(C)CCSc1nccc(-c2ccc(-c3ccnc(SCCN(C)C)n3)s2)n1	15.9 µM (inactive)
Nc1cc2c3c(c1)Oc1cc(N)cc4c1C3c1c(cc(N)cc1O4)O2	21.2 µM (inactive)

Entry under review: "CCOC(=O)c1nc2cc(C(F)(F)F)ccc2nc1Oc1ccc(F)cc1" . Reported GI50?
> 100 µM (inactive)

Entry under review: "O=C1NC2(NC(=O)C1=O)Nc1ccccc1S2" . Reported GI50?
22.1 µM (inactive)

Entry under review: NC1(C(=O)O)CCc2ccc(N(CCCl)CCCl)cc2C1 (stereo not given) . Reported GI50?
26.7 µM (inactive)

Entry under review: "Cc1cc(C)c2[s+]snc2c1" . Reported GI50?
31.1 µM (inactive)

Entry under review: COc1ccc(NC(=O)CC(=O)N2N=C(N3CCCCC3)CC2c2ccccc2)cc1 (stereo not given) . Reported GI50?
> 100 µM (inactive)

Entry under review: "COc1cc(CNc2nc3ccccc3n2Cc2ccccc2)cc(CN2CCOCC2)c1O" . Reported GI50?
32.4 µM (inactive)

Entry under review: "Cc1ccc(NC(=S)NNC(=O)c2cc(-c3ccccc3)nc3ccccc23)cc1" . Reported GI50?
14.7 µM (inactive)

Entry under review: CC(C)(C)OC(=O)NCCNC(=O)CN(CC(=O)O)C1CCCCC1N(CC(=O)O)CC(=O)O (stereo not given) . Reported GI50?
> 100 µM (inactive)

* * *

tested on: DU-145; test: NCI tumour cell line growth inhibition, 48 h
Active and inactive are the calls of the source. No stated cut-off is given here; in the data, active = GI50 up to about 1.1 µM and inactive = higher.
List of GI50 values.

The cases that follow already have their GI50 on record.
MOLECULE	GI50
COc1ccc(NC(=O)C2=C(SC)C(C#N)C(=O)N=C2N)cc1 (stereo not drawn)	> 100 µM (inactive)
Cc1cccc2c(N)c3cccc(C(=O)NCC[N+]4(Cc5ccc([N+](=O)[O-])cc5)CCOCC4)c3nc12	27.3 µM (inactive)
Cc1ccc(S(=O)(=O)N/N=C2\CC3C4C=CC3C2C4)cc1 (stereo not drawn)	> 100 µM (inactive)

Entry O=C(CC(C(=O)c1ccsc1)c1cccs1)c1ccsc1 (stereo not drawn) , system DU-145: what GI50 was measured?
75.7 µM (inactive)

* * *

system: TK-10; experiment: NCI tumour cell line growth inhibition, 48 h
The source made the active and inactive calls. Rule as the data show it: active = GI50 up to about 1.1 µM and inactive = higher.
Pick one: active, inactive

See these solved cases before continuing.
MOLECULE	CATEGORY
COc1ccccc1CC(=O)C(O)(C(F)(F)F)C(F)(F)F	inactive
COc1ccc(C(=O)C#Cc2cnc(O)nc2O)cc1	inactive
COc1cc2c(cc1OC)C(OC)N(C)c1c-2ccc2cc3c(cc12)OCO3 (configuration not stated)	inactive
CCOC(=O)c1c(C)n(CCN2CCN(C)CC2)c2ccc(OC)cc12	inactive
COc1ccc(NC(=O)CC(=O)N2N=C(N3CCCCC3)CC2c2ccccc2)cc1 (configuration not stated)	inactive

Please examine the following record next.
// param item: S=C1NC2=C(COC/C2=C\c2ccccc2Cl)C(c2ccccc2Cl)N1 (configuration not stated) ; yields the recorded call
inactive

* * *

tested on: U-251; experiment: NCI tumour cell line growth inhibition, 48 h
Activity calls are given as the source filed them. Rule as the data show it: active = GI50 up to about 1.1 µM and inactive = higher.
ENDPOINT: GI50

The cases that follow already have their GI50 on record.
MOLECULE	DATA_VALUE
COC(=O)[C@@H](C)[C@H]1CC[C@@](C)(CCC2=C(C)CC3C=C(C)CCC3C2(C)C)OO1 (some centres undefined)	1.42 µM (inactive)
COC(=O)c1cccc(C(=O)OC)c1	> 100 µM (inactive)

Entry under review: CN(C)CC1CCC/C(=C\c2ccc(OC(=O)/C=C/c3ccccc3)cc2)C1=O (centres undefined) . Reported GI50?
1.72 µM (inactive)

Entry under review: O=C(CC(C(=O)c1ccsc1)c1cccs1)c1ccccc1 (centres undefined) . Reported GI50?
98.9 µM (inactive)

Entry under review: CC1CC(NN(C)C)C2(C(N)=O)C(N)=NC(=O)C12C#N (centres undefined) . Reported GI50?
> 100 µM (inactive)

Entry under review: OC1COC(n2c3ccc(Br)cc3c3ccc4c5ccccc5[nH]c4c32)C(O)C1O (centres undefined) . Reported GI50?
5.01 µM (inactive)

Entry under review: "c1ccc(/N=C2/SC3=Nc4cccc5cccc(c45)N3/C2=N/c2ccccc2)cc1" . Reported GI50?
> 100 µM (inactive)

Entry under review: "CCOC(=O)c1csc(NC(=O)CCCC#N)n1" . Reported GI50?
> 100 µM (inactive)

Entry under review: "O=C1/C(=C/c2ccccc2Cl)COc2ccc(Br)cc21" . Reported GI50?
40.6 µM (inactive)

Entry under review: COC(=O)c1ccc(C)cc1CC1Cc2cccc(C)c2C1=O (centres undefined) . Reported GI50?
3.87 µM (inactive)

Entry under review: COc1ccc(OC)c(N2C(=O)/C(=C\c3ccccc3)SC2c2cc(OC)c(OC)c(OC)c2)c1 (centres undefined) . Reported GI50?
> 100 µM (inactive)

Entry under review: "O=C(Nn1c(-c2cccs2)nc2ccc(I)cc2c1=O)c1ccccc1" . Reported GI50?
24.7 µM (inactive)

* * *

List of GI50 values.
test system: HCC 2998; assay: NCI tumour cell line growth inhibition, 48 h
Calls of active or inactive are those of the source. Rule as the data show it: active = GI50 up to about 1.1 µM and inactive = higher.

The cases that follow already have their GI50 on record.
MOLECULE	TESTED_ON	GI50
COc1ccc(NC(=S)N/N=C(\C)c2nc3cccnc3[nH]2)cc1	HCC 2998	7.55 µM (inactive)
CCOc1ccc(NC(=O)CCc2nnc(SC)o2)cc1	HCC 2998	> 100 µM (inactive)
c1ccc(COc2cccc3cccnc23)cc1	HCC 2998	> 100 µM (inactive)
COc1cc2c(c(C)c1O)[C@H]1COc3ccccc3[C@H]1O2	HCC 2998	> 10 µM (inactive)
COc1ccc(OC)c(N2C(=O)/C(=C\c3ccccc3)SC2c2cc(OC)c(OC)c(OC)c2)c1 (stereo unspecified)	HCC 2998	> 100 µM (inactive)
CC(C)(C)OC(=O)NCCNC(=O)CN(CC(=O)O)C1CCCCC1N(CC(=O)O)CC(=O)O (stereo unspecified)	HCC 2998	> 100 µM (inactive)

Entry under review: "CC(C)=Nn1cnc(C(=N)C#N)c1N" . Reported GI50?
> 100 µM (inactive)

Entry under review: "Cc1cc(-c2ccccc2)cc2[n+]1CC=C2.[O-][Cl+3]([O-])([O-])[O-]" . Reported GI50?
> 100 µM (inactive)

Entry under review: CN1CCc2c3n(c4cc(Br)ccc24)[C@H](O)CCCC31 (stereo partly specified) . Reported GI50?
1.75 µM (inactive)

Entry under review: CC(c1ccccc1)N1O[C@]12CC[C@@]1(C)C(CCCC13OCCO3)C2 (stereo partly specified) . Reported GI50?
75.5 µM (inactive)

Entry under review: "CC(C)S(=O)(=O)ON1C(=O)c2ccc([N+](=O)[O-])cc2C1=O" . Reported GI50?
> 100 µM (inactive)
